Readings of zone of inhibition at 50 µg/mL for the listed molecules
# Test system: Penicillium chrysogenum
# PROTOCOL_DESCRIPTION: Antifungal activity against Penicillium chrysogenum at 50 ug/ml after 48 hrs by agar well diffusion method
# Assay type: functional
# RUN_PARAMETERS: read-out: DIZ
Kindly answer with a numeric value in mm, unit omitted.

Consider the following illustrative entries.
- MOLECULE: "O=S(=O)(Cc1nnc(CS(=O)(=O)c2c[nH]cc2S(=O)(=O)c2ccc(Cl)cc2)s1)Nc1ccc(Cl)cc1"
  U: "mm"
  MEASURED_NUMBER: 30
- MOLECULE: "CC(=O)N1CCN(c2ccc(OCC3COC(Cn4ccnc4)(c4ccc(Cl)cc4Cl)O3)cc2)CC1 (configuration not stated) [KETOCONAZOLE]"
  U: "mm"
  MEASURED_NUMBER: 36
- MOLECULE: "Nn1c(CS(=O)(=O)Nc2ccccc2)nnc1CS(=O)(=O)C1CNN=C1S(=O)(=O)c1ccccc1 (configuration not stated)"
  U: "mm"
  MEASURED_NUMBER: 14
- MOLECULE: "O=S(=O)(/C=C/S(=O)(=O)c1ccccc1)Cc1nnc(CS(=O)(=O)Nc2ccccc2)s1"
  U: "mm"
  MEASURED_NUMBER: 21
- MOLECULE: "Cc1ccc(NS(=O)(=O)Cc2nnc(CS(=O)(=O)C3CNN=C3S(=O)(=O)c3ccc(C)cc3)s2)cc1 (configuration not stated)"
  U: "mm"
  MEASURED_NUMBER: 13

# input Checklist item: zone of inhibition at 50 µg/mL tested on Penicillium chrysogenum, entry Cc1ccc(NS(=O)(=O)Cc2nnc(CS(=O)(=O)c3c[nH]nc3S(=O)(=O)c3ccc(C)cc3)s2)cc1 , value?
# output 11

# input Checklist item: zone of inhibition at 50 µg/mL tested on Penicillium chrysogenum, entry Cc1ccc(NS(=O)(=O)Cc2nnc(CS(=O)(=O)c3c[nH]cc3S(=O)(=O)c3ccc(C)cc3)s2)cc1 , value?
# output 16

====

# Tested on: Penicillium chrysogenum
# PROTOCOL_DESCRIPTION: Antifungal activity against Penicillium chrysogenum at 100 ug/ml after 48 hrs by agar well diffusion method
# Type: functional
# RUN_PARAMETERS: read-out: DIZ
RESULT_TYPE: zone of inhibition at 100 µg/mL (mm)
Kindly answer with a numeric value in mm, unit omitted.

- MOLECULE: "Cc1ccc(NS(=O)(=O)Cc2nnc(CS(=O)(=O)/C=C/S(=O)(=O)c3ccc(C)cc3)n2N)cc1"
  RESULT_TYPE: "zone of inhibition at 100 µg/mL"
  MEASURED_NUMBER: 25
- MOLECULE: "Nn1c(CS(=O)(=O)Nc2ccccc2)nnc1CS(=O)(=O)c1c[nH]cc1S(=O)(=O)c1ccccc1"
  RESULT_TYPE: "zone of inhibition at 100 µg/mL"
  MEASURED_NUMBER: 22
- MOLECULE: "Nn1c(CS(=O)(=O)Nc2ccccc2)nnc1CS(=O)(=O)c1c[nH]nc1S(=O)(=O)c1ccccc1"
  RESULT_TYPE: "zone of inhibition at 100 µg/mL"
  MEASURED_NUMBER: 23

# input Looking for the measured zone of inhibition at 100 µg/mL of O=S(=O)(/C=C/S(=O)(=O)c1ccc(Cl)cc1)Cc1nnc(CS(=O)(=O)Nc2ccc(Cl)cc2)o1 , can you help?
# output 25

# input Looking for the measured zone of inhibition at 100 µg/mL of O=S(=O)(Cc1nnc(CS(=O)(=O)C2CNN=C2S(=O)(=O)c2ccc(Cl)cc2)s1)Nc1ccc(Cl)cc1 (stereo unspecified) , can you help?
# output 31

# input Looking for the measured zone of inhibition at 100 µg/mL of O=S(=O)(Cc1nnc(CS(=O)(=O)c2c[nH]nc2S(=O)(=O)c2ccc(Cl)cc2)o1)Nc1ccc(Cl)cc1 , can you help?
# output 24

====

# Test system: Staphylococcus aureus
# PROTOCOL_DESCRIPTION: Antibacterial activity against Staphylococcus aureus at 100 ug/ml after 24 hrs by agar well diffusion method
# Format: functional
# RUN_PARAMETERS: read-out: DIZ
Readings of zone of inhibition at 100 µg/mL for the listed compounds
Kindly answer with a numeric value in mm, unit omitted.

Consider the following illustrative entries.
- COMPOUND: "Cc1ccc(NS(=O)(=O)Cc2nnc(CS(=O)(=O)C3CNN=C3S(=O)(=O)c3ccc(C)cc3)n2N)cc1 (centres undefined)"
  MEASURED_NUMBER: 15
- COMPOUND: "Cc1ccc(NS(=O)(=O)Cc2nnc(CS(=O)(=O)c3c[nH]nc3S(=O)(=O)c3ccc(C)cc3)s2)cc1"
  MEASURED_NUMBER: 14
- COMPOUND: "Cc1ccc(NS(=O)(=O)Cc2nnc(CS(=O)(=O)C3CNN=C3S(=O)(=O)c3ccc(C)cc3)s2)cc1 (centres undefined)"
  MEASURED_NUMBER: 13

Proceed to the following item.
# input Looking for the measured zone of inhibition at 100 µg/mL of O=S(=O)(Cc1nnc(CS(=O)(=O)C2CNN=C2S(=O)(=O)c2ccc(Cl)cc2)s1)Nc1ccc(Cl)cc1 (centres undefined) , can you help?
# output 27

====

Readings of zone of inhibition at 50 µg/mL for the listed compounds
# System: Penicillium chrysogenum
# PROTOCOL_DESCRIPTION: Antifungal activity against Penicillium chrysogenum at 50 ug/ml after 48 hrs by agar well diffusion method
# Format: functional
# RUN_PARAMETERS: read-out: DIZ
Kindly answer with a numeric value in mm, unit omitted.

Consider the following illustrative entries.
- COMPOUND: "O=S(=O)(Cc1nnc(CS(=O)(=O)C2CNN=C2S(=O)(=O)c2ccc(Cl)cc2)s1)Nc1ccc(Cl)cc1 (stereo not given)"
  U: "mm"
  MEASURED_NUMBER: 28
- COMPOUND: "Cc1ccc(NS(=O)(=O)Cc2nnc(CS(=O)(=O)/C=C/S(=O)(=O)c3ccc(C)cc3)s2)cc1"
  U: "mm"
  MEASURED_NUMBER: 20
- COMPOUND: "Cc1ccc(NS(=O)(=O)Cc2nnc(CS(=O)(=O)C3CNN=C3S(=O)(=O)c3ccc(C)cc3)n2N)cc1 (stereo not given)"
  U: "mm"
  MEASURED_NUMBER: 15
- COMPOUND: "O=S(=O)(/C=C/S(=O)(=O)c1ccc(Cl)cc1)Cc1nnc(CS(=O)(=O)Nc2ccc(Cl)cc2)s1"
  U: "mm"
  MEASURED_NUMBER: 32
- COMPOUND: "O=S(=O)(Cc1nnc(CS(=O)(=O)c2c[nH]nc2S(=O)(=O)c2ccc(Cl)cc2)s1)Nc1ccc(Cl)cc1"
  U: "mm"
  MEASURED_NUMBER: 31
- COMPOUND: "O=S(=O)(Cc1nnc(CS(=O)(=O)c2c[nH]nc2S(=O)(=O)c2ccc(Cl)cc2)o1)Nc1ccc(Cl)cc1"
  U: "mm"
  MEASURED_NUMBER: 21
- COMPOUND: "Nn1c(CS(=O)(=O)/C=C/S(=O)(=O)c2ccccc2)nnc1CS(=O)(=O)Nc1ccccc1"
  U: "mm"
  MEASURED_NUMBER: 23
- COMPOUND: "O=S(=O)(/C=C/S(=O)(=O)c1ccc(Cl)cc1)Cc1nnc(CS(=O)(=O)Nc2ccc(Cl)cc2)o1"
  U: "mm"
  MEASURED_NUMBER: 21
- COMPOUND: "O=S(=O)(Cc1nnc(CS(=O)(=O)c2c[nH]nc2S(=O)(=O)c2ccccc2)s1)Nc1ccccc1"
  U: "mm"
  MEASURED_NUMBER: 16

Proceed to the following item.
# input Looking for the measured zone of inhibition at 50 µg/mL of O=S(=O)(Cc1nnc(CS(=O)(=O)c2c[nH]nc2S(=O)(=O)c2ccccc2)o1)Nc1ccccc1 , can you help?
# output 12

All values here come from ChEMBL document CHEMBL2040768.
